// values below are reported inhibition at 0.1 µM
# assayed.target: human recombinant norepinephrine transporter (Homo sapiens)
# Construct: expressed in transfected cells; host or cells: MDCK
# Sequence (P23975 whole entry): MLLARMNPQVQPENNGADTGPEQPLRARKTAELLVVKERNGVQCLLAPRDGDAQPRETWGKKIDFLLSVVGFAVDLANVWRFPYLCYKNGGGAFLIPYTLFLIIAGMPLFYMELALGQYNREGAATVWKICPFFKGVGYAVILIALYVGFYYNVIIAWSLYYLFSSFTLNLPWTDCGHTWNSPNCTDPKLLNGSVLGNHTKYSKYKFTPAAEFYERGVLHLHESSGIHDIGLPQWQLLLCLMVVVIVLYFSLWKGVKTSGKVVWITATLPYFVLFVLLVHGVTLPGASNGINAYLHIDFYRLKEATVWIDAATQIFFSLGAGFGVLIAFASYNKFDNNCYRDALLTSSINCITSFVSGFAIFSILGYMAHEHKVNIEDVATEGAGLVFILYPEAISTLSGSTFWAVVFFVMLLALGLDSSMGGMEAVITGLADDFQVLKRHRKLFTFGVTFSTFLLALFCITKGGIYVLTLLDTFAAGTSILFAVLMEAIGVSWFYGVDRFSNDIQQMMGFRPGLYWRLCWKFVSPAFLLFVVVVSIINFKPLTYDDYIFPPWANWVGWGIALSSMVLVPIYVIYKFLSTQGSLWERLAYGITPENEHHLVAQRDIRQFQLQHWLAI
# protocol.summary: Norepinephrine transporter reuptake inhibition assay ([3H]Norepinephrine uptake)
# Type: cell-based
# cond: 100 nM; MDCK cells with human recombinant norepinephrine transporter; read-out: Inhibition % at 100 nM NE reuptake
Use % as the unit, but write only the number.

Here are 5 molecules together with their reported answers.
>  <molecule>
CNCCC(c1ccc2cc(F)ccc2c1)n1ncnn1 (stereo not shown) [Example 136]

>  <assayed.target>
human recombinant norepinephrine transporter (Homo sapiens)

>  <unit.descriptor>
%

>  <inhibition at 0.1 µM>
25

$$$$
>  <molecule>
Cc1nnn(C(CCN(C)C)c2ccc3cc(F)ccc3c2)n1 (stereo not shown) [Example 51]

>  <assayed.target>
human recombinant norepinephrine transporter (Homo sapiens)

>  <unit.descriptor>
%

>  <inhibition at 0.1 µM>
10

$$$$
>  <molecule>
CNCC[C@@H](c1ccc2ccccc2c1)n1nnc(C)n1 [Example 188]

>  <assayed.target>
human recombinant norepinephrine transporter (Homo sapiens)

>  <unit.descriptor>
%

>  <inhibition at 0.1 µM>
79

$$$$
>  <molecule>
CNCCC(c1ccc2cc(OC)ccc2c1)n1nnc(C)n1 (stereo not shown) [Example 167]

>  <assayed.target>
human recombinant norepinephrine transporter (Homo sapiens)

>  <unit.descriptor>
%

>  <inhibition at 0.1 µM>
84

$$$$
>  <molecule>
CN(C)CCC(c1ccc2cc(Cl)ccc2c1)n1ncnn1 (stereo not shown) [Example 14]

>  <assayed.target>
human recombinant norepinephrine transporter (Homo sapiens)

>  <unit.descriptor>
%

>  <inhibition at 0.1 µM>
32

$$$$

[ask] If you can, please state the reported inhibition at 0.1 µM value of CNCCC(c1ccc2ccccc2c1)n1ncnn1 (stereo not shown) [Example 119] .
[reply] 84

[ask] If you can, please state the reported inhibition at 0.1 µM value of CNCCC(c1cc2ccccc2cc1OC)n1nnc(C)n1 (stereo not shown) [Example 135] .
[reply] 17

[ask] If you can, please state the reported inhibition at 0.1 µM value of COc1ccc2cc(C(CCN(C)C)n3ncnn3)ccc2c1 (stereo not shown) [Example 21] .
[reply] 39

[ask] If you can, please state the reported inhibition at 0.1 µM value of CN(C)CCC(c1ccc2ccccc2c1)n1ncnn1 (stereo not shown) [Example 6] .
[reply] 30

[ask] If you can, please state the reported inhibition at 0.1 µM value of CNCC[C@@H](c1ccc(Cl)c(Cl)c1)n1nnc(C)n1 [Example 129] .
[reply] 84

From: patent US8101642B2
